- SYSTEM_UNDER_TEST: HRas^G12V (Homo sapiens (Human), UniProt P01112, G12V)
- Sequence (P01112 1-166 G12V): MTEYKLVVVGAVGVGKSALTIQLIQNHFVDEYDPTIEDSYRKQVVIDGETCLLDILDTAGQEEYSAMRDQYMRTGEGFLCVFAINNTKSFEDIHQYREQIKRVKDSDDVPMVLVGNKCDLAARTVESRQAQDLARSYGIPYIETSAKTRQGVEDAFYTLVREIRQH
- MEASUREMENT_DESCRIPTION: 19F DLB (ligand-observed 19F NMR) score
- Assay type: binding
- Design: scale not given here
EXPERIMENTAL_ENDPOINT: 19F DLB Score

Solved entries:
- COMPOUND: "COCCOC1CN(C(=O)Cc2c[nH]c3cc(F)ccc23)C1"
  SYSTEM_UNDER_TEST: "HRas^G12V (Homo sapiens (Human), UniProt P01112, G12V)"
  19F DLB Score: 1.62
- COMPOUND: "O=C(Cc1c[nH]c2cc(F)ccc12)Nc1ccc2c(c1)OCO2"
  SYSTEM_UNDER_TEST: "HRas^G12V (Homo sapiens (Human), UniProt P01112, G12V)"
  19F DLB Score: 3.22
- COMPOUND: "O=C(Cc1c[nH]c2cc(F)ccc12)N1C[C@H]2CC[C@@H](C1)O2"
  SYSTEM_UNDER_TEST: "HRas^G12V (Homo sapiens (Human), UniProt P01112, G12V)"
  19F DLB Score: 1.68
- COMPOUND: "CC1CN(C(=O)C(C#N)c2c[nH]c3cc(F)ccc23)C1 (centres unmarked)"
  SYSTEM_UNDER_TEST: "HRas^G12V (Homo sapiens (Human), UniProt P01112, G12V)"
  19F DLB Score: 6.06

Here's the next entry for you.
Q: If you can, please state the reported 19F DLB Score value of Fc1ccc2c(C3=CCNCC3)c[nH]c2c1 .
A: 1.52

---

- SYSTEM_UNDER_TEST: KRAS^G12D-GDP (Homo sapiens (Human), UniProt P01116, G12D)
- Sequence (P01116-2 other isoform, or with tags, fused parts or gaps G12D): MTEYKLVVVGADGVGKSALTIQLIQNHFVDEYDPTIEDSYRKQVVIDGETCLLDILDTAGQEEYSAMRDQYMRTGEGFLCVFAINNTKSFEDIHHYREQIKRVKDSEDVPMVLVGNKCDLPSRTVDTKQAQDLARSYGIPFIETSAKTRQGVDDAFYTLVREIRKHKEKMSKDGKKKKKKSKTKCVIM
- MEASUREMENT_DESCRIPTION: 19F T2-CPMG score, KRAS^G12D-GDP
- Format: binding
- Method: Since the fragment library was curated using phosphate buffer, 25 mM sodium phosphate pH 7.4, 150 mM NaCl, 5 mM MgCl2, 1 mM TCEP-d16, 10% D2O Fresh TCEP was used for experiments. Screening was performed using ^1H-decoupled 1D ^19F experiment Bruker experiment (zgfhigqn.2) with 64 scans and a relaxation delay of 5 seconds. […] The activity of compounds of the invention regarding KRAS^G12D-GDP was measured in the same as in Example 80. […]
EXPERIMENTAL_ENDPOINT: 19F T2-CPMG Score
Numbers only.

Solved entries:
- MOLECULE: "CC(C(=O)N1CCC1)c1c[nH]c2cc(F)ccc12 (centres unmarked)"
  EXPERIMENTAL_ENDPOINT: "19F T2-CPMG Score"
  QUANTITATIVE_READOUT: 9.14
- MOLECULE: "CN(C)Cc1c[nH]c2cc(F)ccc12 [FS-1255, reference compound]"
  EXPERIMENTAL_ENDPOINT: "19F T2-CPMG Score"
  QUANTITATIVE_READOUT: 3.62

Here's the next entry for you.
Q: If you can, please state the reported 19F T2-CPMG Score value of CN(C)S(=O)(=O)NCCc1c[nH]c2cc(F)ccc12 [Compound 10004, reference compound] .
A: 9.41

---

- SYSTEM_UNDER_TEST: HRas^G12V (Homo sapiens (Human), UniProt P01112, G12V)
- MEASUREMENT_DESCRIPTION: 19F T2-CPMG NMR score
- Format: binding
Provide the recorded 19F T2-CPMG Score for the entries that follow.
One number for each entry.

- COMPOUND: "CCOC(=O)C(Cc1ccccc1)NC(=O)Cc1c[nH]c2cc(F)ccc12 (centres unmarked)"
  19F T2-CPMG Score: 2.11
- COMPOUND: "O=C(Cc1c[nH]c2cc(F)ccc12)NCCc1cccnc1"
  19F T2-CPMG Score: 1.2
- COMPOUND: "O=C(Cc1c[nH]c2cc(F)ccc12)N1CC2(COC2)C1"
  19F T2-CPMG Score: 21.31

Quick one: give me 19F T2-CPMG Score for each item below, same order please.
1. O=C(Cc1c[nH]c2cc(F)ccc12)NCCN1CCOCC1
2. CCOC(=O)[C@H](C)NC(=O)Cc1c[nH]c2cc(F)ccc12

A:
7.79
2.19

---

- SYSTEM_UNDER_TEST: HRas^G12V (Homo sapiens (Human), UniProt P01112, G12V)
- MEASUREMENT_DESCRIPTION: 19F DLB (ligand-observed 19F NMR) score
- Assay type: binding
- Design: scale not given here
EXPERIMENTAL_ENDPOINT: 19F DLB Score
Numbers only.

Solved entries:
- MOLECULE: "O=C1CC(c2c[nH]c3cc(F)ccc23)C(=O)N1 (stereo not shown)"
  19F DLB Score: 3.43
- MOLECULE: "O=C(C1CCNC1)N1CCC(c2c[nH]c3cc(F)ccc23)C1 (stereo not shown)"
  19F DLB Score: 1.76
- MOLECULE: "O=C(O)C1CCN(C(=O)Cc2c[nH]c3cc(F)ccc23)CC1"
  19F DLB Score: 1.27
- MOLECULE: "CN1CCC(NC(=O)Cc2c[nH]c3cc(F)ccc23)C(C(=O)O)C1 (stereo not shown) [Compound 10118]"
  19F DLB Score: 1.15
- MOLECULE: "O=C(Cc1c[nH]c2cc(F)ccc12)Nc1ncccn1"
  19F DLB Score: 2.07

Here's the next entry for you.
Q: If you can, please state the reported 19F DLB Score value of O=C(C1CCCNC1)N1CCC(c2c[nH]c3cc(F)ccc23)CC1 (stereo not shown) .
A: 3.29

---

- SYSTEM_UNDER_TEST: KRAS^G12D-GDP (Homo sapiens (Human), UniProt P01116, G12D)
- MEASUREMENT_DESCRIPTION: 19F DLB score, KRAS^G12D-GDP
- Type: binding
- Design: scale not given here
The label depends only on 19F DLB Score: Fulfilled if it is at least 2, Not fulfilled if it is smaller.

Recorded results for 3 compounds are shown here.
- COMPOUND: "CN(C)CC(=O)Nc1cccc(NC(=O)Cc2c[nH]c3cc(F)ccc23)c1"
  CLASS_ASSIGNMENT: "Fulfilled"
- COMPOUND: "CC(=O)Nc1cccc(NC(=O)Cc2c[nH]c3cc(F)ccc23)c1"
  CLASS_ASSIGNMENT: "Fulfilled"
- COMPOUND: "O=C(Cc1c[nH]c2cc(F)ccc12)N1CCCCC1"
  CLASS_ASSIGNMENT: "Fulfilled"

Q: Test whether the compound CN(C)Cc1c[nH]c2cc(F)ccc12 [FS-1255, reference compound] records 19F DLB Score of 2 or higher.
A: Not fulfilled

Q: What do you have for O=C(Cc1c[nH]c2cc(F)ccc12)N1CCC(O)CC1 ?
A: Fulfilled

Q: What do you have for CCOC(=O)Cc1c[nH]c2cc(F)ccc12 [Compound 11003, ethyl 2-(6-fluoro-1H-indol-3-yl) acetate] ?
A: Fulfilled

Q: What do you have for O=C(Cc1c[nH]c2cc(F)ccc12)Nc1ccccc1 ?
A: Fulfilled

Q: What do you have for CC(C)N1CCC(NC(=O)Cc2c[nH]c3cc(F)ccc23)CC1 ?
A: Not fulfilled

Q: What do you have for CN(C)CCOc1cccc(NC(=O)Cc2c[nH]c3cc(F)ccc23)c1 ?
A: Fulfilled

---

- SYSTEM_UNDER_TEST: HRas^G12V (Homo sapiens (Human), UniProt P01112, G12V)
- MEASUREMENT_DESCRIPTION: Dissociation constant by NMR (1H/15N Fast-HSQC, 1H 1D protein-observed)
- Type: binding
- APPLIED_CONDITIONS: HRas^G12V; read-out: NMR Kd
Provide the recorded Kd for the entries that follow.

- COMPOUND: "CC(C(=O)N1CCC1)c1c[nH]c2cc(F)ccc12 (stereo not shown) [Compound 10066]"
  SYSTEM_UNDER_TEST: "HRas^G12V (Homo sapiens (Human), UniProt P01112, G12V)"
  RESULT: "3.51 to 4 mM"
- COMPOUND: "O=C(Cc1c[nH]c2cc(F)ccc12)N1CCCCC1 [Compound 10053]"
  SYSTEM_UNDER_TEST: "HRas^G12V (Homo sapiens (Human), UniProt P01112, G12V)"
  RESULT: "1.53 mM"
- COMPOUND: "CN(C)C[C@H]1CN(C(=O)Cc2c[nH]c3cc(F)ccc23)CCO1 [Compound 10160]"
  SYSTEM_UNDER_TEST: "HRas^G12V (Homo sapiens (Human), UniProt P01112, G12V)"
  RESULT: "1.28 mM"
- COMPOUND: "CS(=O)(=O)NCCc1c[nH]c2cc(F)ccc12 [Compound 10006, reference compound]"
  SYSTEM_UNDER_TEST: "HRas^G12V (Homo sapiens (Human), UniProt P01112, G12V)"
  RESULT: "10 mM"
- COMPOUND: "CN(C)CC(=O)Nc1cccc(NC(=O)Cc2c[nH]c3cc(F)ccc23)c1 [compound 10097]"
  SYSTEM_UNDER_TEST: "HRas^G12V (Homo sapiens (Human), UniProt P01112, G12V)"
  RESULT: "0.108 mM"

Quick one: give me Kd for each item below, same order please.
1. O=C(Cc1c[nH]c2cc(F)ccc12)N1CCC(O)CC1 [Compound 10086]
2. O=C(Cc1c[nH]c2cc(F)ccc12)NC1CCOCC1 [Compound 10027]

A:
1: 2.37 to 4 mM; 2: 7.4 mM
